# Test protocol: mn = molality of the nth substance listed, in mol/kg
# Test parameters: 303.15 K; 100 kPa; Liquid; Capillary tube (Ostwald / Ubbelohde) method; m1 = 0.3
Quantity measured: viscosity (mPa·s)
Number in mPa·s, nothing else.

Guide cases for viscosity, answers given:
{"Compound": "NCC(=O)O [2-aminoacetic acid] + O", "viscosity / mPa·s": 0.832}
{"Compound": "C[C@H](N)C(=O)O [(S)-2-aminopropanoic acid] + O", "viscosity / mPa·s": 0.857}
{"Compound": "N=C(N)NCCC[C@H](N)C(=O)O [L-arginine] + O", "viscosity / mPa·s": 0.922}
{"Compound": "C[C@@H](O)[C@H](N)C(=O)O [L-threonine] + O", "viscosity / mPa·s": 0.878}

# input for lookup
I'd like to know its viscosity. The compound in question is CC(C)[C@H](N)C(=O)O [L-valine] + O
0.899

====

# Test protocol: mn = molality of the nth substance listed, in mol/kg
# Test parameters: 323.15 K; 100 kPa; Liquid; Capillary tube (Ostwald / Ubbelohde) method; m1 = 0.7
Measured viscosity, listed per entry for reference.
Number in mPa·s, nothing else.

Guide cases for viscosity, answers given:
{"Compound": "C[C@@H](O)[C@H](N)C(=O)O [L-threonine] + O", "viscosity [mPa·s]": 0.67}
{"Compound": "N=C(N)NCCC[C@H](N)C(=O)O [L-arginine] + O", "viscosity [mPa·s]": 0.743}
{"Compound": "C[C@H](N)C(=O)O [(S)-2-aminopropanoic acid] + O", "viscosity [mPa·s]": 0.638}

# input for lookup
I'd like to know its viscosity. The compound in question is NCC(=O)O [2-aminoacetic acid] + O
0.61

====

Measured mass density, listed per entry for reference.
# Test protocol: mn = molality of the nth substance listed, in mol/kg
# Test parameters: 293.15 K; 100 kPa; Liquid; Vibrating tube method; m1 = 0.3
Number in kg/m3, nothing else.

{"Molecule": "NCC(=O)O [2-aminoacetic acid] + O", "Quantity measured": "mass density", "Assay value": 1007.67}
{"Molecule": "N=C(N)NCCC[C@H](N)C(=O)O [L-arginine] + O", "Quantity measured": "mass density", "Assay value": 1012.67}
{"Molecule": "C[C@@H](O)[C@H](N)C(=O)O [L-threonine] + O", "Quantity measured": "mass density", "Assay value": 1010.59}
{"Molecule": "C[C@H](N)C(=O)O [(S)-2-aminopropanoic acid] + O", "Quantity measured": "mass density", "Assay value": 1006.66}

I'd like to know its mass density. The molecule in question is CC(C)[C@H](N)C(=O)O [L-valine] + O
1006.05

====

# Test protocol: mn = molality of the nth substance listed, in mol/kg
# Test parameters: 303.15 K; 100 kPa; Liquid; Vibrating tube method; m1 = 0.2
Quantity measured: mass density (kg/m3)
Number in kg/m3, nothing else.

Guide cases for mass density, answers given:
{"Molecule": "CC(C)[C@H](N)C(=O)O [L-valine] + O", "mass density [kg/m3]": 1000.9}
{"Molecule": "C[C@H](N)C(=O)O [(S)-2-aminopropanoic acid] + O", "mass density [kg/m3]": 1001.29}
{"Molecule": "N=C(N)NCCC[C@H](N)C(=O)O [L-arginine] + O", "mass density [kg/m3]": 1005.3}
{"Molecule": "C[C@@H](O)[C@H](N)C(=O)O [L-threonine] + O", "mass density [kg/m3]": 1003.91}
{"Molecule": "OC[C@@H](O)[C@@H](O[C@H]1O[C@H](CO)[C@@H](O)[C@H](O)[C@H]1O)[C@H](O)[C@@H](O)CO [4-O-α-D-glucopyranosyl-D-glucitol] + O", "mass density [kg/m3]": 1020.13}

I'd like to know its mass density. The molecule in question is NCC(=O)O [2-aminoacetic acid] + O
1001.91

====

# Test protocol: mn = molality of the nth substance listed, in mol/kg
# Test parameters: 323.15 K; 100 kPa; Liquid; Vibrating tube method; m1 = 0.4
Quantity measured: mass density (kg/m3)
Number in kg/m3, nothing else.

{"Compound": "C[C@@H](O)[C@H](N)C(=O)O [L-threonine] + O", "Assay value": 1003.85}

I'd like to know its mass density. The compound in question is CC(C)[C@H](N)C(=O)O [L-valine] + O
997.95

I'd like to know its mass density. The compound in question is N=C(N)NCCC[C@H](N)C(=O)O [L-arginine] + O
1006.3

I'd like to know its mass density. The compound in question is NCC(=O)O [2-aminoacetic acid] + O
1000.05

I'd like to know its mass density. The compound in question is OC[C@@H](O)[C@@H](O[C@H]1O[C@H](CO)[C@@H](O)[C@H](O)[C@H]1O)[C@H](O)[C@@H](O)CO [4-O-α-D-glucopyranosyl-D-glucitol] + O
1033.97

====

# Test protocol: mn = molality of the nth substance listed, in mol/kg
# Test parameters: 313.15 K; 100 kPa; Liquid; Capillary tube (Ostwald / Ubbelohde) method; m1 = 0.4
Each entry gets -1 if its viscosity stays under 0.8 mPa·s, and 1 if its viscosity is 0.8 mPa·s or above.

Answered cases to consult:
{"Compound": "CC(C)[C@H](N)C(=O)O [L-valine] + O", "Assigned label": -1}
{"Compound": "C[C@H](N)C(=O)O [(S)-2-aminopropanoic acid] + O", "Assigned label": -1}
{"Compound": "NCC(=O)O [2-aminoacetic acid] + O", "Assigned label": -1}

Decide: viscosity of C[C@@H](O)[C@H](N)C(=O)O [L-threonine] + O >= 0.8 mPa·s?
-1

Decide: viscosity of OC[C@@H](O)[C@@H](O[C@H]1O[C@H](CO)[C@@H](O)[C@H](O)[C@H]1O)[C@H](O)[C@@H](O)CO [4-O-α-D-glucopyranosyl-D-glucitol] + O >= 0.8 mPa·s?
1

====

# Test protocol: mn = molality of the nth substance listed, in mol/kg
# Test parameters: 323.15 K; 100 kPa; Liquid; Vibrating tube method; m1 = 0.6
Measured mass density, listed per entry for reference.
Number in kg/m3, nothing else.

Guide cases for mass density, answers given:
{"Molecule": "C[C@H](N)C(=O)O [(S)-2-aminopropanoic acid] + O", "mass density, kg/m3": 1004.08}
{"Molecule": "N=C(N)NCCC[C@H](N)C(=O)O [L-arginine] + O", "mass density, kg/m3": 1014.68}
{"Molecule": "C[C@@H](O)[C@H](N)C(=O)O [L-threonine] + O", "mass density, kg/m3": 1011.32}
{"Molecule": "OC[C@@H](O)[C@@H](O[C@H]1O[C@H](CO)[C@@H](O)[C@H](O)[C@H]1O)[C@H](O)[C@@H](O)CO [4-O-α-D-glucopyranosyl-D-glucitol] + O", "mass density, kg/m3": 1054.01}

I'd like to know its mass density. The molecule in question is NCC(=O)O [2-aminoacetic acid] + O
1005.85

====

# Test protocol: mn = molality of the nth substance listed, in mol/kg
# Test parameters: 323.15 K; 100 kPa; Liquid; Vibrating tube method; m1 = 0.2
Measured mass density, listed per entry for reference.
Number in kg/m3, nothing else.

Guide cases for mass density, answers given:
{"Molecule": "C[C@@H](O)[C@H](N)C(=O)O [L-threonine] + O", "Assay value": 996.09}
{"Molecule": "NCC(=O)O [2-aminoacetic acid] + O", "Assay value": 994.12}
{"Molecule": "C[C@H](N)C(=O)O [(S)-2-aminopropanoic acid] + O", "Assay value": 993.55}

I'd like to know its mass density. The molecule in question is OC[C@@H](O)[C@@H](O[C@H]1O[C@H](CO)[C@@H](O)[C@H](O)[C@H]1O)[C@H](O)[C@@H](O)CO [4-O-α-D-glucopyranosyl-D-glucitol] + O
1012.07

I'd like to know its mass density. The molecule in question is N=C(N)NCCC[C@H](N)C(=O)O [L-arginine] + O
997.43

I'd like to know its mass density. The molecule in question is CC(C)[C@H](N)C(=O)O [L-valine] + O
993.09

====

# Test protocol: mn = molality of the nth substance listed, in mol/kg
# Test parameters: 293.15 K; 100 kPa; Liquid; Capillary tube (Ostwald / Ubbelohde) method; m1 = 0.6
Measured viscosity, listed per entry for reference.
Number in mPa·s, nothing else.

{"Molecule": "C[C@H](N)C(=O)O [(S)-2-aminopropanoic acid] + O", "viscosity (mPa·s)": 1.163}
{"Molecule": "C[C@@H](O)[C@H](N)C(=O)O [L-threonine] + O", "viscosity (mPa·s)": 1.221}
{"Molecule": "N=C(N)NCCC[C@H](N)C(=O)O [L-arginine] + O", "viscosity (mPa·s)": 1.366}
{"Molecule": "NCC(=O)O [2-aminoacetic acid] + O", "viscosity (mPa·s)": 1.085}

I'd like to know its viscosity. The molecule in question is OC[C@@H](O)[C@@H](O[C@H]1O[C@H](CO)[C@@H](O)[C@H](O)[C@H]1O)[C@H](O)[C@@H](O)CO [4-O-α-D-glucopyranosyl-D-glucitol] + O
1.761
